Tested on: WPMY1-ACTB-RAB5A
test protocol: phenotypically active (imaging signature differs from DMSO and reproducible) at any of 0.3-9 uM (binary (1 = active, 0 = inactive)); higher = active
measurement context: treatment time: 24 h
Counter-ions that a name gives are not always drawn.
experimental readout: phenotypically active
Could you keep your reply to the number by itself?

Use the examples below as a reference point.
{"molecule": "Cc1ncc(-c2ccnc(Nc3ccc(S(C)(=O)=O)cc3)n2)n1C(C)C", "phenotypically active": 1}
{"molecule": "CC(C)[N@+]1(C)[C@@H]2CC[C@H]1C[C@@H](OC(=O)C(CO)c1ccccc1)C2 (some centres undefined)", "phenotypically active": 0}
{"molecule": "C#C[C@]1(O)CC[C@H]2[C@@H]3CCC4=Cc5oncc5C[C@]4(C)[C@H]3CC[C@@]21C", "phenotypically active": 0}
{"molecule": "O=C1NC(=O)/C(=C\\c2cccc(C(F)(F)F)c2)S1", "phenotypically active": 0}
{"molecule": "CCOc1nc(NC(=O)Cc2cc(OC)ccc2OC)cc(N)c1C#N", "phenotypically active": 0}
{"molecule": "CO[C@H]1C=CC=C(C)C(=O)NC2=CC(=O)C(NCCN(C)C)=C(C[C@@H](C)C[C@H](OC)[C@H](O)[C@@H](C)C=C(C)[C@@H]1OC(N)=O)C2=O [17-DMAG hydrochloride]", "phenotypically active": 1}

Task: Quickly give me recorded phenotypically active for Cc1nc2c(O)cccc2c(=O)[nH]1
Output: 0

Task: Quickly give me recorded phenotypically active for CC#CC(=O)N1CCC[C@H]1c1nc(-c2ccc(C(=O)Nc3ccccn3)cc2)c2c(N)nccn12
Output: 0

Task: Quickly give me recorded phenotypically active for C[N+](C)(C)CCOC(N)=O [Carbamoylcholine chloride]
Output: 0

---

Test system: A549-ACTB-RAB5A
test protocol: lowest phenotypically active concentration; higher = less potent
measurement context: treatment time: 24 h
experimental readout: lowest phenotypically active concentration (µM)
Write it as a number; the unit µM goes unstated.

Use the examples below as a reference point.
{"molecule": "Cc1ccc(NC(=O)c2ccc(CN3CCN(C)CC3)cc2)cc1Nc1nc(-c2cccnc2)cs1 [masitinib]", "test value": 3}
{"molecule": "C=C1C(=O)O[C@@H]2C=C(C)CCC=C(C)CC[C@@H]12 [Costunolide]", "test value": 9}
{"molecule": "c1ccc(CN(CC2=NCCN2)c2ccccc2)cc1 [antazoline]", "test value": 3}
{"molecule": "COc1ccc(CCc2nc3cc(-c4c(C)noc4C)ccc3n2C[C@H](C)N2CCOCC2)cc1Cl", "test value": 3}
{"molecule": "C[C@H]1Oc2cc(cnc2N)-c2c(nn(C)c2C#N)CN(C)C(=O)c2ccc(F)cc21", "test value": 3}

Continue with the molecule presented below.
Task: Quickly give me recorded lowest phenotypically active concentration for CC#CC(=O)N1CCC[C@H]1c1nc(-c2ccc(C(=O)Nc3ccccn3)cc2)c2c(N)nccn12 [acalabrutinib]
Output: 9

---

Tested on: HepG2-GM130-SQSTM1
test protocol: phenotypically active (imaging signature differs from DMSO and reproducible) at any of 0.3-9 uM (binary (1 = active, 0 = inactive)); higher = active
measurement context: treatment time: 24 h
Where a name gives a salt, the structure may show the parent alone.
experimental readout: phenotypically active
Could you keep your reply to the number by itself?

{"molecule": "N#C/C(=C(/N)Sc1ccc(N)cc1)c1ccccc1C(F)(F)F", "system name": "HepG2-GM130-SQSTM1", "phenotypically active": 1}
{"molecule": "NCCNS(=O)(=O)c1ccc(Cl)c2ccncc12 [CKI 7 dihydrochloride]", "system name": "HepG2-GM130-SQSTM1", "phenotypically active": 0}
{"molecule": "CC(=O)N1CCN(C)CC1 [1-Acetyl-4-methylpiperazine hydrochloride]", "system name": "HepG2-GM130-SQSTM1", "phenotypically active": 0}

Task: Quickly give me recorded phenotypically active for Cn1cnc([N+](=O)[O-])c1Sc1ncnc2nc[nH]c12
Output: 0

Task: Quickly give me recorded phenotypically active for CNCCCN1c2ccccc2CCc2ccccc21
Output: 0

Task: Quickly give me recorded phenotypically active for Cc1c(-c2cnccn2)ssc1=S
Output: 0

Task: Quickly give me recorded phenotypically active for O=C(CCCCCCC(=O)NO)NO
Output: 0

Task: Quickly give me recorded phenotypically active for FC(F)(F)c1ccc(/C=C/c2nc(COc3ccc(CCCCn4ccnn4)cc3)co2)cc1
Output: 1

Task: Quickly give me recorded phenotypically active for CC(C)c1ccc(NC(=O)Cn2cnc3c2c(=O)n(C)c(=O)n3C)cc1
Output: 0

Task: Quickly give me recorded phenotypically active for OC[C@H]1O[C@@H](Oc2ccc(O)cc2)[C@H](O)[C@@H](O)[C@@H]1O
Output: 0

---

Test system: A549-TP53BP1-CLTA
test protocol: lowest phenotypically active concentration; higher = less potent
measurement context: treatment time: 24 h
experimental readout: lowest phenotypically active concentration (µM)
Write it as a number; the unit µM goes unstated.

{"molecule": "COc1cc2nc(N3CCCN(C)CC3)nc(NC3CCN(Cc4ccccc4)CC3)c2cc1OC", "test value": 1}
{"molecule": "O=C(NCCCNc1nc(Nc2cccc(NC(=O)N3CCCC3)c2)ncc1I)c1cccs1", "test value": 3}
{"molecule": "CNC1CCC2(C)C(=CCC3C2CCC24CN(C)C(C)C2CCC34)C1 (stereo not drawn)", "test value": 1}

Task: Report lowest phenotypically active concentration from A549-TP53BP1-CLTA testing of Cc1ccc(NC(=O)c2ccc(CN3CCN(C)CC3)cc2)cc1Nc1nc(-c2cccnc2)cs1
Output: 9

Task: Report lowest phenotypically active concentration from A549-TP53BP1-CLTA testing of Cc1c(C(=O)N2CCOc3ccc(-c4ccc(N)nc4)cc3C2)ccc(S(C)(=O)=O)c1F
Output: 3

Task: Report lowest phenotypically active concentration from A549-TP53BP1-CLTA testing of CCN(CC)CCCC(C)Nc1ccnc2cc(Cl)ccc12 (stereo not drawn)
Output: 9

---

Test system: WPMY1-GM130-SQSTM1
test protocol: lowest phenotypically active concentration; higher = less potent
measurement context: treatment time: 24 h
Where a name gives a salt, the structure may show the parent alone.
Here the recorded lowest phenotypically active concentration is given for each entry.

Use the examples below as a reference point.
{"compound": "COc1ccc(S(=O)(=O)N(CCO)c2ccccc2CN(C)C/C=C/c2ccc(Cl)cc2)cc1", "system name": "WPMY1-GM130-SQSTM1", "test value": "9 µM"}
{"compound": "COc1ccc(CCNCc2ccc(OCc3ccc(Cl)nc3)c(OC)c2)cc1OC [SBE 13 hydrochloride]", "system name": "WPMY1-GM130-SQSTM1", "test value": "9 µM"}
{"compound": "CCCNCC(O)COc1ccccc1C(=O)CCc1ccccc1 (stereo not given) [propafenone]", "system name": "WPMY1-GM130-SQSTM1", "test value": "3 µM"}
{"compound": "O=S(=O)(c1cccc2cnccc12)N1CCNCC1", "system name": "WPMY1-GM130-SQSTM1", "test value": "9 µM"}

Continue with the compound presented below.
Task: Quickly give me recorded lowest phenotypically active concentration for CC/C(=C(/c1ccccc1)c1ccc(OCCN(C)C)cc1)c1ccccc1 [tamoxifen]
Output: 9 µM

---

System: WPMY1-GM130-SQSTM1
test protocol: lowest phenotypically active concentration; higher = less potent
measurement context: treatment time: 24 h
experimental readout: lowest phenotypically active concentration (µM)
Write it as a number; the unit µM goes unstated.

Use the examples below as a reference point.
{"compound": "O=C(CCCCCN1C(=O)c2cccc3cccc(c23)C1=O)NO [Scriptaid]", "test value": 1}
{"compound": "CC(=O)Nc1ccc(C(=O)Nc2ccccc2N)cc1", "test value": 3}
{"compound": "COc1cc2nc(-c3cc(F)ccc3O)nc(N[C@@H]3CNC[C@H]3C(C)(C)O)c2cc1OC", "test value": 1}

Task: Quickly give me recorded lowest phenotypically active concentration for COc1ccc(CNC(=O)Nc2ncc([N+](=O)[O-])s2)cc1
Output: 9

Task: Quickly give me recorded lowest phenotypically active concentration for O=C1NN(c2ccc(F)c(Cl)c2)C(=O)/C1=C\c1ccc([N+](=O)[O-])o1
Output: 9

Task: Quickly give me recorded lowest phenotypically active concentration for O=C(Nc1ccccc1)N1CCN(c2nc(-c3ccccc3)ns2)CC1
Output: 9

Task: Quickly give me recorded lowest phenotypically active concentration for CCOC(=O)c1ccc(N2NC(=O)/C(=C/c3ccc([N+](=O)[O-])o3)C2=O)cc1
Output: 9

---

System: WPMY1-GM130-SQSTM1
test protocol: phenotypically active (imaging signature differs from DMSO and reproducible) at any of 0.3-9 uM (binary (1 = active, 0 = inactive)); higher = active
measurement context: treatment time: 24 h
Counter-ions that a name gives are not always drawn.
Return exactly one item of active, inactive

Examples from the recorded data:
{"compound": "CN1CC(=O)N2[C@H](c3ccc4c(c3)OCO4)c3[nH]c4ccccc4c3C[C@@H]2C1=O [tadalafil]", "system name": "WPMY1-GM130-SQSTM1", "label": "inactive"}
{"compound": "CN([C@H]1c2cc(OCCCC(F)(F)F)ccc2OC(C)(C)[C@@H]1O)S(C)(=O)=O", "system name": "WPMY1-GM130-SQSTM1", "label": "inactive"}
{"compound": "CC[N@@+]1(C)[C@@H]2CC[C@H]1C[C@@H](OC(=O)[C@]1(c3ccccc3)CC[C@H](C(=O)O[C@H]3C[C@H]4CC[C@@H](C3)[N@+]4(C)CC)c3ccccc31)C2 [beta- Belladonnine dichloroethylate]", "system name": "WPMY1-GM130-SQSTM1", "label": "inactive"}

Task: Please state the recorded outcome for this compound: O=C(Nc1cccc(Cl)c1)Nc1ncc(CCNc2ncnc3ccsc23)s1 [SNS 314 mesylate]
Output: active

Task: Please state the recorded outcome for this compound: COc1ccc2c(c1)N(C(C)=O)[C@H]1[C@@H]3CO[C@H](C)[C@@H]4CN5CC[C@]21[C@@H]5C[C@H]34 [Strychnospermine]
Output: inactive

Task: Please state the recorded outcome for this compound: C[C@@H](Oc1cc(-n2cnc3ccc(CN4CCN(C)CC4)cc32)sc1C(N)=O)c1ccccc1C(F)(F)F
Output: active

Task: Please state the recorded outcome for this compound: OC[C@H]1NC[C@@H](O)[C@@H](O)[C@@H]1O [1-Deoxymannojirimycin hydrochloride]
Output: inactive
